- Test system: HOP-92 NSCLC
- measurement notes: NCI-60 one-dose screen, 48 h
- measurement setup: 10 µM
Compounds without any hit were thinned out: in the full panel of roughly 83,000, 20% have a hit. Activity calls are given as the source filed them. How the source made its calls: active means growth percent below 10; inactive means the rest.
Select the matching outcome among active, inactive

Use these answered entries as a reference point.
O=C1c2cccc3cc([N+](=O)[O-])cc(c23)C(=O)N1CCN1CCCC1 :: active
O=S(=O)(c1cc(Cl)ccc1O)c1cc(Cl)ccc1O :: active

Query :: For CC1CCC2(C(=O)O)CCC3(C)C(=CCC4C5(C)CC(O)C(O)C(C)(CO)C5C(O)CC43C)C2C1C (centres undefined) , which call appears in the assay record?
Result :: inactive

Query :: Recorded test outcome, item `S=P(N1CC1)(N1CC1)N1CC1`
Result :: inactive

Query :: Each molecule tested received a call. Report the one for `O=c1[nH]cc(/C=N\Nc2ccccc2)c(=O)[nH]1` .
Result :: inactive

Query :: Could you please tell me the result logged for `CCOC(=O)[C@]1(Br)CC[C@@]1(Br)C(=O)OCC` in this assay?
Result :: inactive
